# measurementContext: in n-butanol, 318.15 K
quantityName: solubility (mole fraction)

P. C[C@@H]1O[C@@H](O[C@H]2[C@H](Oc3cc(O)c4c(c3)O[C@H](c3ccc(O)cc3)CC4=O)O[C@H](CO)[C@@H](O)[C@@H]2O)[C@H](O)[C@H](O)[C@H]1O
Q. O=C1C[C@@H](c2ccc(O)cc2)Oc2cc(O)cc(O)c21
Of P and Q , which shows the smaller solubility (mole fraction) value? Give the label of your selection.
P

* * *

# measurementContext: in isopropanol, 328.15 K
quantityName: solubility (mole fraction)

P. O=C1C[C@@H](c2ccc(O)cc2)Oc2cc(O)cc(O)c21
Q. C[C@@H]1O[C@@H](O[C@H]2[C@H](Oc3cc(O)c4c(c3)O[C@H](c3ccc(O)cc3)CC4=O)O[C@H](CO)[C@@H](O)[C@@H]2O)[C@H](O)[C@H](O)[C@H]1O
Please tell me which of the two, P or Q , has the higher reported solubility (mole fraction) value. Give the label of your selection.
P

* * *

# measurementContext: in ethyl acetate, 328.15 K
quantityName: solubility (mole fraction)

1. O=C1C[C@@H](c2ccc(O)cc2)Oc2cc(O)cc(O)c21
2. C[C@@H]1O[C@@H](O[C@H]2[C@H](Oc3cc(O)c4c(c3)O[C@H](c3ccc(O)cc3)CC4=O)O[C@H](CO)[C@@H](O)[C@@H]2O)[C@H](O)[C@H](O)[C@H]1O
Please tell me which of the two, 1 or 2 , has the higher reported solubility (mole fraction) value. Give the label of your selection.
1

* * *

# measurementContext: in n-hexane, 293.15 K
quantityName: solubility (mole fraction)

P. C[C@@H]1O[C@@H](O[C@H]2[C@H](Oc3cc(O)c4c(c3)O[C@H](c3ccc(O)cc3)CC4=O)O[C@H](CO)[C@@H](O)[C@@H]2O)[C@H](O)[C@H](O)[C@H]1O
Q. O=C1C[C@@H](c2ccc(O)cc2)Oc2cc(O)cc(O)c21
Of P and Q , which shows the smaller solubility (mole fraction) value? Give the label of your selection.
P
(P: 1.39e-07, Q: 3.7e-06)

* * *

# measurementContext: in methanol, 328.15 K
quantityName: solubility (mole fraction)

P. O=C1C[C@@H](c2ccc(O)cc2)Oc2cc(O)cc(O)c21
Q. C[C@@H]1O[C@@H](O[C@H]2[C@H](Oc3cc(O)c4c(c3)O[C@H](c3ccc(O)cc3)CC4=O)O[C@H](CO)[C@@H](O)[C@@H]2O)[C@H](O)[C@H](O)[C@H]1O
Of P and Q , which shows the smaller solubility (mole fraction) value? Give the label of your selection.
Q

* * *

# measurementContext: in ethyl acetate, 318.15 K
quantityName: solubility (mole fraction)

1. C[C@@H]1O[C@@H](O[C@H]2[C@H](Oc3cc(O)c4c(c3)O[C@H](c3ccc(O)cc3)CC4=O)O[C@H](CO)[C@@H](O)[C@@H]2O)[C@H](O)[C@H](O)[C@H]1O
2. O=C1C[C@@H](c2ccc(O)cc2)Oc2cc(O)cc(O)c21
Of 1 and 2 , which shows the smaller solubility (mole fraction) value? Give the label of your selection.
1

* * *

# measurementContext: in isopropanol, 293.15 K
quantityName: solubility (mole fraction)

P. O=C1C[C@@H](c2ccc(O)cc2)Oc2cc(O)cc(O)c21
Q. C[C@@H]1O[C@@H](O[C@H]2[C@H](Oc3cc(O)c4c(c3)O[C@H](c3ccc(O)cc3)CC4=O)O[C@H](CO)[C@@H](O)[C@@H]2O)[C@H](O)[C@H](O)[C@H]1O
Please tell me which of the two, P or Q , has the higher reported solubility (mole fraction) value. Give the label of your selection.
P
(P: 0.0116, Q: 1.59e-05)
